Biological target: hPTP1B (Homo sapiens)
Construct: The catalytic structural domain of hPTP1B was expressed in E-coli system by a molecular biology protocol; made in house; host or cells: E. coli
Assay: PTP1B inhibition test (pNPP hydrolysis, absorption at 410 nm)
Format: biochemical
Settings: recombinant hPTP1B catalytic domain 40 nM, 2 mM pNPP, pH 7.0, 2% DMSO; read-out: IC50(μM), inhibitory activity of the test compounds against PTP1B
# IC50 annotations
Form entry: value (µM) — number only.

* CCOC(=O)/C(C)=C\C(C)=C\c1csc([C@H](Cc2ccc(OCc3ccc(OC)cc3)cc2)NC(=O)C2CCCCC2)n1 [WY602h] | 25.6
* CCOC(=O)/C(C)=C\C(C)=C\c1csc([C@H](Cc2ccc(OCc3ccccc3)cc2)NC(=O)c2ccc(OC)cc2)n1 [WY596s] | 44.8
* CCOC(=O)/C(C)=C\C(C)=C\c1csc([C@H](Cc2ccc(OCc3ccccc3)cc2)NC(=O)N[C@@H](Cc2ccc(OCc3ccccc3)cc2)c2nc(/C=C(C)/C=C(/C)C(=O)OCC)cs2)n1 [WY951] | 6.29
* CCOC(=O)/C(C)=C/C(C)=C/c1csc([C@H](Cc2ccc(OCc3ccccc3)cc2)NC(=O)C2CCCCC2)n1 [WY572-2] | 6.38

Given the compound CCOC(=O)/C(C)=C\C(C)=C\c1csc([C@H](Cc2ccc(OCc3ccsc3)cc2)NC(=O)C2CCCCC2)n1 [WY578h] , what is its reported IC50?
12

Endpoint output: IC50 of CCOC(=O)/C(C)=C/C(C)=C\c1csc([C@H](Cc2ccc(OCc3ccccc3)cc2)NC(=O)C2CCCCC2)n1 [WY572-3] . Value?
8.69

Fill blank: measured IC50 of the compound CCOC(=O)/C(C)=C\C(C)=C\c1csc([C@H](Cc2ccc(OCc3ccccc3)cc2)NC(=O)CC(C)(C)C)n1 [WY560t] is ____.
20.2

* * *

Target: hPTP1B (Homo sapiens, UniProt P18031)
Construct: The catalytic structural domain of hPTP1B was expressed in E-coli system by a molecular biology protocol; made in house; host or cells: E. coli
Sequence (P18031 3-277 limits assumed): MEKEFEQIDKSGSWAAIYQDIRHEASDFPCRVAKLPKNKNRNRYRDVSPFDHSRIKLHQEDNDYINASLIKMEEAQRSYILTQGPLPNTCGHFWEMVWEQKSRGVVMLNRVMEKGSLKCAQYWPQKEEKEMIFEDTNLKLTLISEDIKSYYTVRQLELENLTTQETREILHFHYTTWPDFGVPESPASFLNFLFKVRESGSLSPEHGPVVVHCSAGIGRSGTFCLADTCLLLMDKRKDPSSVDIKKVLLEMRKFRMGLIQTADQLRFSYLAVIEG
Experiment: PTP1B inhibition test (pNPP hydrolysis, absorption at 410 nm)
Format: biochemical
Details: recombinant hPTP1B catalytic domain 40 nM, 2 mM pNPP, pH 7.0, 2% DMSO; read-out: IC50(μM), inhibitory activity of the test compounds against PTP1B
Rule for this label: fulfilled means IC50 is less than 10 µM; not fulfilled means IC50 is at least 10 µM.

// known answers, use as guide
* CCOC(=O)/C(C)=C\C(C)=C\c1csc([C@H](Cc2ccc(OCc3ccccc3)cc2)NC(=O)C(=O)C2CCCC2)n1 [WY586] | not fulfilled
* CCOC(=O)/C(C)=C\C(C)=C\c1csc([C@H](Cc2ccc(OCc3ccccc3)cc2)NC(=O)C(=O)C2CCC2)n1 [WY572] | fulfilled
* CCOC(=O)/C(C)=C\C(C)=C\c1csc([C@H](Cc2ccc(OCc3ccccc3)cc2)NC(=O)N2CCC(C(=O)OCC)CC2)n1 [WY645s] | not fulfilled
* CCOC(=O)/C(C)=C\C(C)=C\c1csc([C@H](Cc2ccc(-c3ccccc3)cc2)NC(=O)C2CCCCC2)n1 [WY542h] | not fulfilled

Could you now consider this next compound?
A record lists CCOC(=O)/C(C)=C\C(C)=C\c1csc([C@H](Cc2ccc(OCc3ccccc3)cc2)NC(=O)COCc2ccccc2)n1 [WY610s] . Is its IC50 below 10 µM?
fulfilled
